target: T1, recombinant Fc-tag-fused human Notch-1 extracellular domain (Homo sapiens, UniProt P46531); experiment: BLI; Fabs immobilised on amine-reactive generation-2 or anti-Fab CH1 biosensors, target proteins in solution at at least three concentrations; 25°C, PBS; global fit to a 1:1 binding model; apparent constants (Fc fusions may dimerize); settings: both partners purified
T1 construct: Notch-1, human, extracellular domain; the R&D Systems product may hold only part of the ectodomain (surmise); also called N1; Fc-Notch; source: bought: R&D Systems
T1 sequence (P46531 19-1735): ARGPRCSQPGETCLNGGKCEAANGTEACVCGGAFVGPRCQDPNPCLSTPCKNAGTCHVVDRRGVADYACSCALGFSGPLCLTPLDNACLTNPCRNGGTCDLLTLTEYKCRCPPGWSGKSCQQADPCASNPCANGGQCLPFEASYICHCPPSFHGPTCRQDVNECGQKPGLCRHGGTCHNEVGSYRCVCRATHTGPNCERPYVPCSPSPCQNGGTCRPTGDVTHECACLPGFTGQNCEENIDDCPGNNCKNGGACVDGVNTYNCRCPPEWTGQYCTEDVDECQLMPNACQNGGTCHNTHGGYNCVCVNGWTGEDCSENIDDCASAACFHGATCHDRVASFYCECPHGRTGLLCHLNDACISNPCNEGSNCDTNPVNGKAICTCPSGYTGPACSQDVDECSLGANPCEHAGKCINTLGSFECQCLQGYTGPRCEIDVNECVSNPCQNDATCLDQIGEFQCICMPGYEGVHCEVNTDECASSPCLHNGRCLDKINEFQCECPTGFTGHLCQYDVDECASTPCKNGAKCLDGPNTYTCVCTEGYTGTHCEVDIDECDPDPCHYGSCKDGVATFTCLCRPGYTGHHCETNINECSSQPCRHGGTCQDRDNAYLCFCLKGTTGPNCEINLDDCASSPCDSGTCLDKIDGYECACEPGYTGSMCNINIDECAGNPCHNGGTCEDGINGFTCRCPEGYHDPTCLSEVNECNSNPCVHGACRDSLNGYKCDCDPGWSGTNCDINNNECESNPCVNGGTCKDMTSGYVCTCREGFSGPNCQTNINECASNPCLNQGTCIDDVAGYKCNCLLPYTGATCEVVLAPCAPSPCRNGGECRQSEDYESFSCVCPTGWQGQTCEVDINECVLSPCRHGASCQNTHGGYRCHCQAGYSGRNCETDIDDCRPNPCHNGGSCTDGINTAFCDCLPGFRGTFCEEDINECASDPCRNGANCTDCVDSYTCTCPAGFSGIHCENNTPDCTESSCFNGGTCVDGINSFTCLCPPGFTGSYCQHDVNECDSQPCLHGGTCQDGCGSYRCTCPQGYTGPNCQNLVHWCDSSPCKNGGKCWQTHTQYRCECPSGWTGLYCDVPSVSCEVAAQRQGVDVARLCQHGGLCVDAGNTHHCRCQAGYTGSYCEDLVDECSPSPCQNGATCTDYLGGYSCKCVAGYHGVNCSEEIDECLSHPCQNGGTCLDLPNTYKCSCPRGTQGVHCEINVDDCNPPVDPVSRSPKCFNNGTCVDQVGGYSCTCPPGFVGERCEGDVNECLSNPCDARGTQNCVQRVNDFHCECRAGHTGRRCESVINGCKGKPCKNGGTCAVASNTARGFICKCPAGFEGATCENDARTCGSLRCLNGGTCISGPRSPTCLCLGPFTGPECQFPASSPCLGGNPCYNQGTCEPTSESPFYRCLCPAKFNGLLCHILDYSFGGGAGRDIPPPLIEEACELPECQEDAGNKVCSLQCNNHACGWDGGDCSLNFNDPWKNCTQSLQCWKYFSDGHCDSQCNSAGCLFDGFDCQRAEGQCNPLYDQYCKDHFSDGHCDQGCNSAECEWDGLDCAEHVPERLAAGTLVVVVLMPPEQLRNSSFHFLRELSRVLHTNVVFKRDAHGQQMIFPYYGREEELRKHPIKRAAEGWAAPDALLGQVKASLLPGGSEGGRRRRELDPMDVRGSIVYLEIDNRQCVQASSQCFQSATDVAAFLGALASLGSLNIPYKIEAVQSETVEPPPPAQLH
Exercise: for every item that follows, state its recorded koff.
One number for each entry, in s⁻¹.

query: Given Fab N1/F/1 (Fab, V domains shown, Library-F Fab on a modified trastuzumab framework; Library-F Fab on a modified trastuzumab framework, CDRs L1 and L2 fixed; The Fab has a His tag (detected with anti-HIS antibody and biosensors); Library-F framework: Persson et al., 2013; source: E. coli BL21, purified (Protein-L resin)) VH: EVQLVESGGGLVQPGGSLRLSCAASGFNISSYSMHWVRQAPGKGLEWVAYISSSYGSTYYADSVKGRFTISADTSKNTAYLQMNSLRAEDTAVYYCARSWALDYWGQGTLVTVSS VL: DIQMTQSPSSLSASVGDRVTITCRASQSVSSAVAWYQQKPGKAPKLLIYSASSLYSGVPSRFSGSRSGTDFTLTISSLQPEDFATYYCQQYWGPITFGQGTKVEIK , state its recorded koff.
result: 0.000118

query: Param item = Fab N1/F/2 (Fab, V domains shown, Library-F Fab on a modified trastuzumab framework; Library-F Fab on a modified trastuzumab framework, CDRs L1 and L2 fixed; The Fab has a His tag (detected with anti-HIS antibody and biosensors); Library-F framework: Persson et al., 2013; source: E. coli BL21, purified (Protein-L resin)) VH: EVQLVESGGGLVQPGGSLRLSCAASGFNLSSYSIHWVRQAPGKGLEWVASISSSYGYTYYADSVKGRFTISADTSKNTAYLQMNSLRAEDTAVYYCARGYYAFDYWGQGTLVTVSS VL: DIQMTQSPSSLSASVGDRVTITCRASQSVSSAVAWYQQKPGKAPKLLIYSASSLYSGVPSRFSGSRSGTDFTLTISSLQPEDFATYYCQQWWSFPLITFGQGTKVEIK ; retrieve measured koff.
result: 0.000123

query: # query: koff of entry Fab N1/ModF/5 (Fab, V domains shown, Modified-F library Fab on a modified trastuzumab framework; Modified-F library Fab on a modified trastuzumab framework, CDRs L1 and L2 fixed; The Fab has a His tag (detected with anti-HIS antibody and biosensors); Template phagemid derived from the anti-MBP Fab of Library-F (Persson et al., 2013); source: E. coli BL21, purified (Protein-L resin)) VH: EVQLVESGGGLVQPGGSLRLSCAASGFNISSSYMHWVRQAPGKGLEWVASIYSYSGSTYYADSVKGRFTISADTSKNTAYLQMNSLRAEDTAVYYCARSGYSGVSGSVYSYWPFYGLDYWGQGTLVTVSS VL: DIQMTQSPSSLSASVGDRVTITCRASQSVSSAVAWYQQKPGKAPKLLIYSASSLYSGVPSRFSGSRSGTDFTLTISSLQPEDFATYYCQQGPYHGYSLITFGQGTKVEIK
result: 8.15e-05

query: What does the record list as koff for Fab N1/F/R1 (Fab, V domains shown, Library-F rare Fab reconstructed from NGS information, modified trastuzumab framework; Library-F rare Fab reconstructed from NGS information, modified trastuzumab framework, CDRs L1 and L2 fixed; The Fab has a His tag (detected with anti-HIS antibody and biosensors); Library-F framework: Persson et al., 2013; source: E. coli BL21, purified (Protein-L resin)) VH: EVQLVESGGGLVQPGGSLRLSCAASGFNIYSSYIHWVRQAPGKGLEWVASIYPYYGSTYYADSVKGRFTISADTSKNTAYLQMNSLRAEDTAVYYCARYAHFSVYGAMDYWGQGTLVTVSS VL: DIQMTQSPSSLSASVGDRVTITCRASQSVSSAVAWYQQKPGKAPKLLIYSASSLYSGVPSRFSGSRSGTDFTLTISSLQPEDFATYYCQQWYGGYALFTFGQGTKVEIK ?
result: 0.000154

query: Suppose we examine the binder Fab N1/ModF/2 (Fab, V domains shown, Modified-F library Fab on a modified trastuzumab framework; Modified-F library Fab on a modified trastuzumab framework, CDRs L1 and L2 fixed; The Fab has a His tag (detected with anti-HIS antibody and biosensors); Template phagemid derived from the anti-MBP Fab of Library-F (Persson et al., 2013); source: E. coli BL21, purified (Protein-L resin)) VH: EVQLVESGGGLVQPGGSLRLSCAASGFNLYSSYIHWVRQAPGKGLEWVAYISPYSGSTYYADSVKGRFTISADTSKNTAYLQMNSLRAEDTAVYYCARYGYAYHPYHSGYWYGALDYWGQGTLVTVSS VL: DIQMTQSPSSLSASVGDRVTITCRASQSVSSAVAWYQQKPGKAPKLLIYSASSLYSGVPSRFSGSRSGTDFTLTISSLQPEDFATYYCQQVSAGYGPPITFGQGTKVEIK ; what koff value has been reported?
result: 1.91e-05

Hi team, please reply with koff for each item in this list.
1. Fab N1/F/R2 (Fab, V domains shown, Library-F rare Fab reconstructed from NGS information, modified trastuzumab framework; Library-F rare Fab reconstructed from NGS information, modified trastuzumab framework, CDRs L1 and L2 fixed; The Fab has a His tag (detected with anti-HIS antibody and biosensors); Library-F framework: Persson et al., 2013; source: E. coli BL21, purified (Protein-L resin)) VH: EVQLVESGGGLVQPGGSLRLSCAASGFNFSSSSIHWVRQAPGKGLEWVASIYSYYGYTYYADSVKGRFTISADTSKNTAYLQMNSLRAEDTAVYYCARSWWGGSWYAALDYWGQGTLVTVSS VL: DIQMTQSPSSLSASVGDRVTITCRASQSVSSAVAWYQQKPGKAPKLLIYSASSLYSGVPSRFSGSRSGTDFTLTISSLQPEDFATYYCQQWWSLITFGQGTKVEIK
2. Fab N1/F/3 (Fab, V domains shown, Library-F Fab on a modified trastuzumab framework; Library-F Fab on a modified trastuzumab framework, CDRs L1 and L2 fixed; The Fab has a His tag (detected with anti-HIS antibody and biosensors); Library-F framework: Persson et al., 2013; source: E. coli BL21, purified (Protein-L resin)) VH: EVQLVESGGGLVQPGGSLRLSCAASGFNLYSYYIHWVRQAPGKGLEWVASISSYYGYTSYADSVKGRFTISADTSKNTAYLQMNSLRAEDTAVYYCARYWHGALDYWGQGTLVTVSS VL: DIQMTQSPSSLSASVGDRVTITCRASQSVSSAVAWYQQKPGKAPKLLIYSASSLYSGVPSRFSGSRSGTDFTLTISSLQPEDFATYYCQQGYFTYLFTFGQGTKVEIK
3. Fab N1/F/R3 (Fab, V domains shown, Library-F rare Fab reconstructed from NGS information, modified trastuzumab framework; Library-F rare Fab reconstructed from NGS information, modified trastuzumab framework, CDRs L1 and L2 fixed; The Fab has a His tag (detected with anti-HIS antibody and biosensors); Library-F framework: Persson et al., 2013; source: E. coli BL21, purified (Protein-L resin)) VH: EVQLVESGGGLVQPGGSLRLSCAASGFNIYSSYMHWVRQAPGKGLEWVASIYPYYGYTSYADSVKGRFTISADTSKNTAYLQMNSLRAEDTAVYYCARYFSYGPFYYGSGLDYWGQGTLVTVSS VL: DIQMTQSPSSLSASVGDRVTITCRASQSVSSAVAWYQQKPGKAPKLLIYSASSLYSGVPSRFSGSRSGTDFTLTISSLQPEDFATYYCQQGFSLITFGQGTKVEIK

result:
1. 6.91e-05
2. 0.000218
3. 0.000484
